Listing: pIC50 of selected sequences
- measured on: HLA-A*02:01
- assay overview: IEDB peptide-MHC binding, purified MHC/competitive/radioactivity; bounds were set here for any values at or beyond the usual limits of such assays
- run conditions: source organism: Hepatitis B virus
Note on units: pIC50 is unitless, being -log10 of a concentration expressed in mol/L.

VLLDYQGML
7.09
CLIFLLVLL
7.00
FLLAQFTSA
7.01

The recorded pIC50 for GLSRYVARV is 6.81

====

- measured on: HLA-A*02:01
- assay overview: IEDB peptide-MHC binding, purified MHC/competitive/radioactivity; bounds were set here for any values at or beyond the usual limits of such assays
- run conditions: source organism: Vaccinia virus WR
pIC50: −log10 of the molar value.
Everything with pIC50 lower than 7 is Condition not met; everything else, including exactly 7, is Condition met.

Illustrative cases are given below, each with its answer.
MMCYFLTATL
Condition met
TVTNKEGVKI
Condition not met
ILSCIFAFI
Condition met
SIEGELESL
Condition not met
QLSNNKYVL
Condition not met
STLIVTIYV
Condition not met
HMYFTFFDV
Condition met
KLSSYHVVSV
Condition met
SLVYGIRCV
Condition not met
LAELLEMKYA
Condition not met

Input line: Assess whether reported pIC50 for LILSCIFAFI sits at 7 or higher.
Output line: Condition met

Input line: Assess whether reported pIC50 for IIMAINVFT sits at 7 or higher.
Output line: Condition met

Input line: Assess whether reported pIC50 for VLYPVIFIT sits at 7 or higher.
Output line: Condition met

====

- measured on: HLA-A*02:03
- assay overview: IEDB peptide-MHC binding, purified MHC/competitive/radioactivity; bounds were set here for any values at or beyond the usual limits of such assays
- run conditions: source organism: Vaccinia virus WR
pIC50: −log10 of the molar value.
Everything with pIC50 lower than 6 is f; everything else, including exactly 6, is t.

Input line: Assess whether reported pIC50 for LMIFISSFL sits at 6 or higher.
Output line: t

====

Listing: IC50 of selected sequences
- measured on: HLA-A*02:03
- assay overview: IEDB peptide-MHC binding, purified MHC/competitive/radioactivity; bounds were set here for any values at or beyond the usual limits of such assays
- run conditions: source organism: Influenza A virus
Numbers only; they are read as nM.

Take a look at these entries with their results.
GILGFVFTLT
911
AAFEDLRLL
1470
ATAGLTHMMI
1060
AVATTHSWI
753
RASAGQISV
4960
RLTILGKDA
3510
YNAELLVLL
1790

Could you now look at the following sequence, please?
The recorded IC50 for FQVDCFLWH is 1260

====

- measured on: HLA-A*02:01
- assay overview: IEDB peptide-MHC binding, purified MHC/competitive/radioactivity; bounds were set here for any values at or beyond the usual limits of such assays
- run conditions: source organism: Vaccinia virus WR
Listing: log10 IC50 of selected sequences
In plain terms, each number is the log10 of measured IC50 in nM.

VMISILNPV
1.52
ALTDVEKRI
3.06
TLLIKTLSPA
-0.31
FVFAWFNGV
-0.42
IVPDADPPI
2.87

Entry VVSVDCNKEL under HLA-A*02:01 had log10 IC50 of 3.39

Entry IVCSKTVKNV under HLA-A*02:01 had log10 IC50 of 3.15

Entry IQESFIRFTV under HLA-A*02:01 had log10 IC50 of 1.23

Entry SMMVILPDKI under HLA-A*02:01 had log10 IC50 of 0.79

Entry VLEYIYGGKT under HLA-A*02:01 had log10 IC50 of 3.16

Entry MAGVEVRYI under HLA-A*02:01 had log10 IC50 of 3.36

Entry GILSNYVKTL under HLA-A*02:01 had log10 IC50 of 2.49

Entry EAAAATCALV under HLA-A*02:01 had log10 IC50 of 2.50

Entry RIYCSLFKNV under HLA-A*02:01 had log10 IC50 of 1.79
